assay type: in vivo, human; conditions: human, plasma, oral, tmax, eliglustat 84 mg BID + ketoconazole 400 mg QD, Days 9 to 15, all (N = 33); median (minimum, maximum)
property-measured: Tmax (h)
Respond numerically; units are h and should not be typed.

Looking up CCCCCCCC(=O)N[C@H](CN1CCCC1)[C@H](O)c1ccc2c(c1)OCCO2 , I see its Tmax listed as 2.3

###

format: in vivo, human; details: human, plasma, oral, AUC0-τ, eliglustat 84 mg BID + ketoconazole 400 mg QD, Days 9 to 15, CYP2D6 EMs only (N = 31); 0 to 12 h; mean (SD)
property-measured: AUC (µg·h/mL)
Dear colleague, please return just the value in µg·h/mL, with no unit written.

Input CCCCCCCC(=O)N[C@H](CN1CCCC1)[C@H](O)c1ccc2c(c1)OCCO2 . Output AUC: 0.501

###

type: in vivo, human; conditions: human, plasma, oral, 84 mg, Cmax, eliglustat 84 mg single dose, Day 1, all (N = 36); mean (SD)
property-measured: Cmax (ng/mL)
Entry rule: numbers only, all in ng/mL.

Cmax in this record for CCCCCCCC(=O)N[C@H](CN1CCCC1)[C@H](O)c1ccc2c(c1)OCCO2 : 9.87

###

type: in vivo, human; conditions: human, plasma, oral, 84 mg, Cmax, eliglustat 84 mg BID, Days 2 to 8, CYP2D6 EMs only (N = 31); mean (SD)
property-measured: Cmax (ng/mL)
# number only, unit ng/mL dropped from output

get_value(item= CCCCCCCC(=O)N[C@H](CN1CCCC1)[C@H](O)c1ccc2c(c1)OCCO2 , readout=Cmax) returns 19.5

###

assay type: in vivo, human; conditions: human, plasma, oral, 84 mg, AUC0-τ, eliglustat 84 mg BID, Days 2 to 8, CYP2D6 EMs only (N = 31); 0 to 12 h; mean (SD)
property-measured: AUC (ng·h/mL)
Value expressed in ng·h/mL; do not type the unit.

Just so you know, measured AUC for CCCCCCCC(=O)N[C@H](CN1CCCC1)[C@H](O)c1ccc2c(c1)OCCO2 came out at 119

###

assay type: in vivo, human; conditions: human, plasma, oral, 84 mg
property-measured: half-life (h)
Please state the figure in h; there is no need to write the unit.

Looking up CCCCCCCC(=O)N[C@H](CN1CCCC1)[C@H](O)c1ccc2c(c1)OCCO2 [eliglustat] , I found its half-life recorded as 5.1

###

assay: Eliglustat alone, pharmacokinetics across all three studies; assay type: in vivo, human; conditions: human, plasma, oral
property-measured: half-life

half-life recorded for this compound, CCCCCCCC(=O)N[C@H](CN1CCCC1)[C@H](O)c1ccc2c(c1)OCCO2 , is 4.2 to 5.11 h

###

assay: Rifampin drug interaction study: eliglustat pharmacokinetics in healthy adults; assay type: in vivo, human; details: human, plasma, iv, Cmax, CYP2D6 non-PMs (N = 19), eliglustat 127 mg single dose + rifampin 600 mg IV single dose, concomitant period Day 1; mean (SD)
property-measured: Cmax (ng/mL)
Write the value in ng/mL as a bare number.

So for CCCCCCCC(=O)N[C@H](CN1CCCC1)[C@H](O)c1ccc2c(c1)OCCO2 [eliglustat] , the logged Cmax turned out to be 17.9

###

assay: Rifampin drug interaction study: eliglustat pharmacokinetics in healthy adults; format: in vivo, human; conditions: human, plasma, oral, 127 mg, Cmax, CYP2D6 non-PMs (N = 19), eliglustat 127 mg BID, monotherapy period Days 2 to 6; mean (SD)
property-measured: Cmax

Recorded Cmax (compound CCCCCCCC(=O)N[C@H](CN1CCCC1)[C@H](O)c1ccc2c(c1)OCCO2 ): 42.8 ng/mL

###

assay type: in vivo, human; conditions: human, plasma, oral, 84 mg, Cmax, eliglustat 84 mg BID, Days 2 to 8, all (N = 33); mean (SD)
property-measured: Cmax (ng/mL)
Numbers only; they are read as ng/mL.

The compound listed as CCCCCCCC(=O)N[C@H](CN1CCCC1)[C@H](O)c1ccc2c(c1)OCCO2 has a reported Cmax of 18.6

###

assay type: in vivo, human; details: human, plasma, oral, 84 mg, tmax, eliglustat 84 mg BID, Days 2 to 8, all (N = 33); median (minimum, maximum)
property-measured: Tmax

Item: CCCCCCCC(=O)N[C@H](CN1CCCC1)[C@H](O)c1ccc2c(c1)OCCO2 | Tmax: 2 h

###

test: Rifampin drug interaction study: eliglustat pharmacokinetics in healthy adults; type: in vivo, human; conditions: human, plasma, po, AUC0-τ, CYP2D6 non-PMs (N = 18), eliglustat 127 mg BID + rifampin 600 mg oral QD, concomitant period Days 2 to 6; 0 to 12 h; mean (SD)
property-measured: AUC (ng·h/mL)
A number alone suffices; assume ng·h/mL.

Given item CCCCCCCC(=O)N[C@H](CN1CCCC1)[C@H](O)c1ccc2c(c1)OCCO2 , the value recorded as its AUC is 29.3

###

test: Rifampin drug interaction study: eliglustat pharmacokinetics in healthy adults; assay type: in vivo, human; details: human, plasma, oral, 84 mg, AUC0-τ, CYP2D6 PMs, eliglustat 84 mg BID, monotherapy period Days 2 to 6; 0 to 12 h; mean (SD)
property-measured: AUC
Mention the unit after the number when you answer.

So for CCCCCCCC(=O)N[C@H](CN1CCCC1)[C@H](O)c1ccc2c(c1)OCCO2 [eliglustat] , the logged AUC turned out to be 922 ng·h/mL

###

test: Rifampin drug interaction study: eliglustat pharmacokinetics in healthy adults; type: in vivo, human; conditions: human, plasma, po, AUC0-τ, CYP2D6 PMs, eliglustat 84 mg BID + rifampin 600 mg oral QD, concomitant period Days 2 to 6; 0 to 12 h; mean (SD)
property-measured: AUC (ng·h/mL)
Your answer is read as ng·h/mL, so omit the unit and give the number.

For record CCCCCCCC(=O)N[C@H](CN1CCCC1)[C@H](O)c1ccc2c(c1)OCCO2 the listed AUC is 38

###

assay type: in vivo, human; conditions: human, plasma, oral, 84 mg, AUC0-∞, eliglustat 84 mg single dose, Day 1, CYP2D6 EMs only (N = 32); mean (SD)
property-measured: AUC(0-inf) (ng·h/mL)
Field format: number, assumed ng·h/mL, no unit text.

Data point: CCCCCCCC(=O)N[C@H](CN1CCCC1)[C@H](O)c1ccc2c(c1)OCCO2 ; AUC(0-inf) = 77.2

###

assay: Paroxetine drug interaction study: eliglustat pharmacokinetics in healthy adults; format: in vivo, human; details: human, plasma, oral, 84 mg, Cmax, eliglustat 84 mg BID, Days 2 to 8, CYP2D6 EMs only (N = 33); mean (SD)
property-measured: Cmax (ng/mL)
Numbers only; they are read as ng/mL.

Cmax for CCCCCCCC(=O)N[C@H](CN1CCCC1)[C@H](O)c1ccc2c(c1)OCCO2 [eliglustat] is 19.4

###

test: Paroxetine drug interaction study: eliglustat pharmacokinetics in healthy adults; assay type: in vivo, human; details: human, plasma, oral, 84 mg, Cmax, eliglustat 84 mg single dose, Day 1, CYP2D6 EMs only (N = 33); mean (SD)
property-measured: Cmax (ng/mL)
Respond with the bare value in ng/mL.

GET /value?item= CCCCCCCC(=O)N[C@H](CN1CCCC1)[C@H](O)c1ccc2c(c1)OCCO2 [eliglustat] &field=Cmax returns 10.9
